Reference source: ChEMBL document CHEMBL1152288

Experimental details: Volume of distribution at steady state in Sprague-Dawley rat at 2.5 mg/kg, iv
Assay type: ADME, organism-based
Parameters: dose 2.5 mg/kg, route intravenous
Cond: in vivo, read-out: Vdss
Quantity: Vd (L/kg)
Report the value in L/kg with no unit label.

So what's the measured Vd for this one? "CCN(CC)C(=O)[C@]1(c2ccccc2)C[C@H]1CN"
2

----------
Experimental details: Metabolic stability in rat liver microsomes assessed as systemic clearance at 1 uM after 15 mins by LC-MS/MS analysis
Assay type: ADME, Microsome
# CLhep predicted at 1 µM listing for each entry below
Use mL/min/kg as the unit, but write only the number.

Guide cases for CLhep predicted at 1 µM, answers given:
# Sample smiles, CLhep predicted at 1 µM, mL/min/kg
rows = [
    ("C#CCN(CC)C(=O)[C@@]1(c2cccs2)C[C@H]1CN", 44),
    ("C=CCN(CC=C)C(=O)[C@@]1(c2cccs2)C[C@H]1CN", 61),
    ("CCN(CC)C(=O)[C@]1(c2ccccc2)C[C@H]1CN", 24),
]

Which measured CLhep predicted at 1 µM value corresponds to "C=C(F)CN(CC)C(=O)[C@@]1(c2cccs2)C[C@H]1CN" ?
54

----------
Experimental details: Cmax in Sprague-Dawley rat at 30 mg/kg, po
Type: ADME, organism-based
Design: dose 30 mg/kg, route oral
Cond: in vivo
Quantity: Cmax (ng/mL)
// return numeric value only (unit: ng/mL, not printed)

What measured Cmax goes with "C=CCN(CC=C)C(=O)[C@@]1(c2cccs2)C[C@H]1CN" ?
522

----------
Experimental details: Metabolic stability in human liver microsomes assessed as systemic clearance at 1 uM after 15 mins by LC-MS/MS analysis
Type: ADME, Microsome
// -1 strictly below 7 mL/min/kg in CLhep predicted at 1 µM; 1 otherwise

These solved cases illustrate the format of a correct answer.
# Molecule, Assigned class
measured = [
    ("C=C(F)CN(CC)C(=O)[C@@]1(c2cccs2)C[C@H]1CN", -1),
    ("CCN(CC)C(=O)C1(c2ccccc2)CC1CN (stereo not given)", -1),
    ("C#CCN(CC#C)C(=O)[C@@]1(c2cccs2)C[C@H]1CN", -1),
]

Has "C#CCN(CC)C(=O)[C@@]1(c2cccs2)C[C@H]1CN" a recorded CLhep predicted at 1 µM greater than or equal to 7 mL/min/kg?
-1

Would you say "C=CCN(CC)C(=O)[C@@]1(c2cccs2)C[C@H]1CN" shows CLhep predicted at 1 µM at minimum 7 mL/min/kg?
1

Evaluate "CCN(CC)C(=O)[C@]1(c2ccccc2)C[C@H]1CN" : CLhep predicted at 1 µM at minimum 7 mL/min/kg?
-1

Say whether "C=CCN(CC=C)C(=O)[C@@]1(c2cccs2)C[C@H]1CN" shows CLhep predicted at 1 µM of 7 mL/min/kg or more.
1

Could you tell me if the measured CLhep predicted at 1 µM of "C=CCN(C(=O)[C@@]1(c2cccs2)C[C@H]1CN)C1CC1" reaches 7 mL/min/kg or more?
-1

Given "NC[C@@H]1C[C@@]1(C(=O)N1Cc2ccccc2C1)c1cccs1" , state whether its CLhep predicted at 1 µM is at least 7 mL/min/kg.
1

----------
Experimental details: Tmax in Sprague-Dawley rat at 10 mg/kg, po
Format: ADME, organism-based
Set-up: dose 10 mg/kg, route oral
Cond: in vivo
Quantity: Tmax (min)
Write down the numeric answer in min and omit the unit.

Which Tmax value belongs to "CCN(CC)C(=O)[C@]1(c2ccccc2)C[C@H]1CN" ?
18
